Would you kindly list IC50 for each of these compounds?
- Test system: MDA-MB-436
- Protocol description: Antiproliferative activity against human MDA-MB-436 cells assessed as decrease in cell viability after 24 hrs by MTT assay
- Type: functional, cell-based
- Particulars: MDA-MB-436, 24 h

Look up IC50 of O=C(O)CC(NC(=O)c1c(Cl)cccc1Cl)c1ccc(Cl)cc1Cl (centres undefined) and report it.
> 100 µM

Look up IC50 of O=C(O)CC(NS(=O)(=O)c1ccccc1)c1ccccc1 (centres undefined) and report it.
> 100 µM

Look up IC50 of COc1ccc(C(=O)NC(CC(=O)O)c2ccc(Cl)cc2Cl)cc1 (centres undefined) and report it.
> 100 µM

Look up IC50 of O=C(O)CC(NS(=O)(=O)c1ccc(OC(F)(F)F)cc1)c1ccccc1 (centres undefined) and report it.
> 100 µM

Look up IC50 of O=C(O)CC(NC(=O)c1ccc(Cl)cc1Cl)c1ccccc1F (centres undefined) and report it.
> 100 µM

Look up IC50 of O=C(O)CC(NS(=O)(=O)c1ccccc1)c1ccc(Cl)cc1Cl (centres undefined) and report it.
59 µM

Look up IC50 of CNC(=O)c1cc(Oc2ccc(NC(=O)Nc3ccc(Cl)c(C(F)(F)F)c3)cc2)ccn1 and report it.
4.2 µM

Look up IC50 of O=C(O)CC(NS(=O)(=O)c1ccccc1Br)c1ccc(Cl)cc1Cl (centres undefined) and report it.
> 100 µM

Look up IC50 of COc1ccccc1S(=O)(=O)NC(CC(=O)O)c1ccc(C(C)(C)C)cc1 (centres undefined) and report it.
> 100 µM

This collection of values is drawn from ChEMBL document CHEMBL4138216.
